Documented pIC50 across a set of compounds
molecular target: UniProtKB Z9G3U5DLY1; test: Antagonist inhibition of tyramine-activated PaOctβ2R-HA (cAMP via CNG channel / Fluo-4); assay type: cell-based, Periplaneta americana; conditions: 1 × 10^−7 M tyramine; 1 × 10^−4 M IBMX; read-out: IC50, half-maximal inhibition of tyramine-activated PaOctβ2R-HA
pIC50 is a log-scale quantity: -log10 of the concentration expressed in molar.

smiles.notation	pIC50
Cc1ccc(N(CC2=NCCN2)c2cccc(O)c2)cc1	6.59

Alright, here's another compound for you.
Consider the compound shown here: O=C(c1ccc(F)cc1)C1CCN(CCn2c(=O)[nH]c3ccccc3c2=O)CC1 What is its recorded pIC50?
5.77
